# test_protocol: Intrinsic clearance in rat liver microsomes
# Type: ADME, Microsome
Label rule, in plain words: microsomal CLint of 80 µL/min/mg and up is t, under 80 µL/min/mg is f.

Here's what some known entries look like.
Tell me whether microsomal CLint is at least 80 µL/min/mg here: `O=C(N[C@H]1C[C@H]2CC[C@@H](C1)N2)[C@@H](Cc1ccc(Cl)cc1)NC(=O)C1(c2ccc(Cl)cc2)CC1`
f

Moving on to `CN1[C@@H]2CC[C@H]1C[C@@H](NC(=O)[C@@H](Cc1ccc(Cl)cc1)NC(=O)C(C)(C)c1ccc(Cl)cc1)C2`
t

# iterate: CN1[C@@H]2CC[C@H]1C[C@@H](NC(=O)C(Cc1ccc(Cl)cc1)NC(=O)Cc1ccc(Cl)c(Cl)c1)C2 (some centres undefined)
t

Lookup `CN1[C@@H]2CC[C@H]1C[C@@H](NC(=O)[C@@H](Cc1ccc(Cl)cc1)NC(=O)Cc1ccc(Cl)cc1)C2`
t

What would you report for `CN1[C@@H]2CC[C@H]1C[C@@H](NC(=O)[C@@H](Cc1ccc(Cl)cc1)NC(=O)Cc1ccc(F)cc1)C2` ?
f

Continuing:
Reported microsomal CLint reaches at least 80 µL/min/mg for `CN1[C@@H]2CC[C@H]1C[C@@H](NC(=O)[C@@H](Cc1ccc(Cl)cc1)NC(=O)C1(c3ccc(Cl)cc3)CC1)C2` ?
t

# repeat for `CN1[C@@H]2CC[C@H]1C[C@@H](NC(=O)[C@@H](Cc1ccc(Cl)cc1)NC(=O)Cc1ccccc1)C2`
f

Also, `O=C(Cc1ccc(Cl)c(Cl)c1)N[C@H](Cc1ccc(Cl)cc1)C(=O)N[C@H]1C[C@H]2CC[C@@H](C1)N2` please.
f

And what about the compound CN1[C@@H]2CC[C@H]1C[C@@H](NC(=O)C(Cc1ccc(Cl)cc1)NC(=O)Cc1ccccc1)C2 (mixture of isomers) ?
f

---

# test_protocol: Intrinsic clearance in human liver microsomes
# Type: ADME, Microsome
measurement_type: microsomal CLint (µL/min/mg)
Respond numerically; units are µL/min/mg and should not be typed.

Quick check: microsomal CLint of `CN1[C@@H]2CC[C@H]1C[C@@H](NC(=O)[C@@H](Cc1ccc(Cl)cc1)NC(=O)C(C)(C)c1ccc(Cl)cc1)C2` ?
84

More entries:
I have this molecule here, CN1[C@@H]2CC[C@H]1C[C@@H](NC(=O)C(Cc1ccc(Cl)cc1)NC(=O)Cc1ccccc1)C2 (mixture of isomers) , and I need its recorded microsomal CLint.
23

And the next one, `CN1[C@@H]2CC[C@H]1C[C@@H](NC(=O)[C@@H](Cc1ccc(Cl)cc1)NC(=O)Cc1ccccc1)C2` ?
27

Now this one: CN1[C@@H]2CC[C@H]1C[C@@H](NC(=O)C(Cc1ccc(Cl)cc1)NC(=O)Cc1ccc(Cl)c(Cl)c1)C2 (stereo not given in full)
191

How about `COc1cc(C)c(S(=O)(=O)N[C@@H](Cc2ccc(Cl)cc2)C(=O)N(CCCN2CCN(C)CC2)Cc2ccccc2)c(C)c1C` ?
262

Likewise for `CN1[C@@H]2CC[C@H]1C[C@@H](NC(=O)[C@@H](Cc1ccc(Cl)cc1)NC(=O)Cc1ccc(F)cc1)C2` ?
30

How about `O=C(Cc1ccc(Cl)c(Cl)c1)N[C@H](Cc1ccc(Cl)cc1)C(=O)N[C@H]1C[C@H]2CC[C@@H](C1)N2` ?
29

Would you kindly repeat that for `O=C(N[C@H]1C[C@H]2CC[C@@H](C1)N2)[C@@H](Cc1ccc(Cl)cc1)NC(=O)C1(c2ccc(Cl)cc2)CC1` ?
58

And then `CN1[C@@H]2CC[C@H]1C[C@@H](NC(=O)[C@@H](Cc1ccc(Cl)cc1)NC(=O)Cc1ccc(Cl)cc1)C2` , what is it?
50

Would you mind doing `CN1[C@@H]2CC[C@H]1C[C@@H](NC(=O)[C@@H](Cc1ccc(Cl)cc1)NC(=O)C1(c3ccc(Cl)cc3)CC1)C2` as well?
274
